SYSTEM_UNDER_TEST: CaV2.2 (Homo sapiens, UniProt Q00975)
Construct: expressed in transfected cells; host or cells: unnamed doxycycline-inducible cell line
Sequence (Q00975 whole entry): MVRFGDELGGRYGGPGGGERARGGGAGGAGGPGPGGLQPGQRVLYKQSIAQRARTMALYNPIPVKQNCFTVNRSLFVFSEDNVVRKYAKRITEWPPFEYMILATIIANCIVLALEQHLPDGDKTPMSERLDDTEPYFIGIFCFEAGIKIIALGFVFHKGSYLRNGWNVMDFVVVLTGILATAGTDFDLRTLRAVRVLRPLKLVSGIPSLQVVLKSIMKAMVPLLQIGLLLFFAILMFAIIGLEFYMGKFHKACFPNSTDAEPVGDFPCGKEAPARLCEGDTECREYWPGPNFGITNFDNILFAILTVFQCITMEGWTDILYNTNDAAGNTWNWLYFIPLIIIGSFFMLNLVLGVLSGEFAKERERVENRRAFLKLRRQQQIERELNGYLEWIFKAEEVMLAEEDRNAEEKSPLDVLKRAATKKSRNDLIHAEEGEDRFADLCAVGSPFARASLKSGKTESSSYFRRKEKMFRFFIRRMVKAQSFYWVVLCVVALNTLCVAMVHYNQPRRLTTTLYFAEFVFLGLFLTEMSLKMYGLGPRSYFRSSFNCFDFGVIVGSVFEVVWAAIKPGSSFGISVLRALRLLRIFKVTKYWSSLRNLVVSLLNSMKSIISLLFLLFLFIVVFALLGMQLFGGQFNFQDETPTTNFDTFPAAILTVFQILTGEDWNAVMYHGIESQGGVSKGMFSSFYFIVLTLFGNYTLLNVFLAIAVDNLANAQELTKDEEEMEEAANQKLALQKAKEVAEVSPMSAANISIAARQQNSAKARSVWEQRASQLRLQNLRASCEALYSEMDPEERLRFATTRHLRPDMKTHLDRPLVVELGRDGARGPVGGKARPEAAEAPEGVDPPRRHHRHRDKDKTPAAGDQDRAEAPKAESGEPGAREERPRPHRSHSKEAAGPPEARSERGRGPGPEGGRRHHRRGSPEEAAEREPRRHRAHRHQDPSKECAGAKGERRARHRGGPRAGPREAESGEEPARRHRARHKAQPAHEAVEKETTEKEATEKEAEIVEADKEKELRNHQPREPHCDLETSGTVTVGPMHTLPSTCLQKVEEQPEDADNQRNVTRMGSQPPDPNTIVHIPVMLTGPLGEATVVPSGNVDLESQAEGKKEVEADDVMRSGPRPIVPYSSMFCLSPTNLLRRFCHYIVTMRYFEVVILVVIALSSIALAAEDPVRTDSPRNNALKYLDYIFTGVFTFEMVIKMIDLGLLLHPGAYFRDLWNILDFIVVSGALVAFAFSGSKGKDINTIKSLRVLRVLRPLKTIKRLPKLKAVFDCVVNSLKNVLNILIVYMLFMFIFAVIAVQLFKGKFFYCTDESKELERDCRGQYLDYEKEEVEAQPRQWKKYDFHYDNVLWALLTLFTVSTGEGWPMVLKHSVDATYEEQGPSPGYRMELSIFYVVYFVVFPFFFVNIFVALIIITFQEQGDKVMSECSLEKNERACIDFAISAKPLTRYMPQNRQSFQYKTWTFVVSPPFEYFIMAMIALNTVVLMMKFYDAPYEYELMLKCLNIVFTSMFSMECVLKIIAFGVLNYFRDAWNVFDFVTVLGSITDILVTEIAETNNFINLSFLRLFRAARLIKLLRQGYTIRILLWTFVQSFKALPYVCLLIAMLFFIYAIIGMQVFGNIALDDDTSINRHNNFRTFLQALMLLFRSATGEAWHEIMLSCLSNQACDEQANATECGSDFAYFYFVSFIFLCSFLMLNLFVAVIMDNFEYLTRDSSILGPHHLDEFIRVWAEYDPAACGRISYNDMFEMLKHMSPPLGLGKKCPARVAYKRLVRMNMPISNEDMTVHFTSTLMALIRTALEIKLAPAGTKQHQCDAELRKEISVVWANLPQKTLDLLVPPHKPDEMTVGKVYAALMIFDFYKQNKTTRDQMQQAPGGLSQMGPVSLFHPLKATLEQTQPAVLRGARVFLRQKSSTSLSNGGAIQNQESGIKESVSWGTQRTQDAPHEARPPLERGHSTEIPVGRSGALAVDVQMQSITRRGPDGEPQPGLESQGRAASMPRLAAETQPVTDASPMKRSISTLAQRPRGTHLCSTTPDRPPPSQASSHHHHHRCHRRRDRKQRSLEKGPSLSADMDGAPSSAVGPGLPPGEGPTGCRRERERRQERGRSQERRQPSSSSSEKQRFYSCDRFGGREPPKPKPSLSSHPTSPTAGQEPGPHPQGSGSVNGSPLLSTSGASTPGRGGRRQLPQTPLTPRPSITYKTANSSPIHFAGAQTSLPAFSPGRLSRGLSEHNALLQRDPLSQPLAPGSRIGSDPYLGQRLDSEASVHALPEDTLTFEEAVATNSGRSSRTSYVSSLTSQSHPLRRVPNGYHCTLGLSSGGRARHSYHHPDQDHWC
Sequence (P54284 whole entry partner): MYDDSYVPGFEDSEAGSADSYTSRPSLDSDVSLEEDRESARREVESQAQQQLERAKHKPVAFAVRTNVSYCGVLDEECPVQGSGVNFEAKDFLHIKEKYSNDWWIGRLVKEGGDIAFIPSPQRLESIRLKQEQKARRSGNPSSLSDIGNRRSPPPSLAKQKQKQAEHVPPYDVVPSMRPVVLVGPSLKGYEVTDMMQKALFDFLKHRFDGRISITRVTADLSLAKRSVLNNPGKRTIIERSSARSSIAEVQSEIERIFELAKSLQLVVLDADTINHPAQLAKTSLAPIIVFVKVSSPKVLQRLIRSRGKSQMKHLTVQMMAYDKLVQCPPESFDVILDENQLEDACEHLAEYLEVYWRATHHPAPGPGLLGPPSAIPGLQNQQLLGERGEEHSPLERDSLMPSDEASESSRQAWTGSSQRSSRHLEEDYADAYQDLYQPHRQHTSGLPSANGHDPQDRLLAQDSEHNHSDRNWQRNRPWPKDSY
Sequence (P54289 25-946 partner limits assumed): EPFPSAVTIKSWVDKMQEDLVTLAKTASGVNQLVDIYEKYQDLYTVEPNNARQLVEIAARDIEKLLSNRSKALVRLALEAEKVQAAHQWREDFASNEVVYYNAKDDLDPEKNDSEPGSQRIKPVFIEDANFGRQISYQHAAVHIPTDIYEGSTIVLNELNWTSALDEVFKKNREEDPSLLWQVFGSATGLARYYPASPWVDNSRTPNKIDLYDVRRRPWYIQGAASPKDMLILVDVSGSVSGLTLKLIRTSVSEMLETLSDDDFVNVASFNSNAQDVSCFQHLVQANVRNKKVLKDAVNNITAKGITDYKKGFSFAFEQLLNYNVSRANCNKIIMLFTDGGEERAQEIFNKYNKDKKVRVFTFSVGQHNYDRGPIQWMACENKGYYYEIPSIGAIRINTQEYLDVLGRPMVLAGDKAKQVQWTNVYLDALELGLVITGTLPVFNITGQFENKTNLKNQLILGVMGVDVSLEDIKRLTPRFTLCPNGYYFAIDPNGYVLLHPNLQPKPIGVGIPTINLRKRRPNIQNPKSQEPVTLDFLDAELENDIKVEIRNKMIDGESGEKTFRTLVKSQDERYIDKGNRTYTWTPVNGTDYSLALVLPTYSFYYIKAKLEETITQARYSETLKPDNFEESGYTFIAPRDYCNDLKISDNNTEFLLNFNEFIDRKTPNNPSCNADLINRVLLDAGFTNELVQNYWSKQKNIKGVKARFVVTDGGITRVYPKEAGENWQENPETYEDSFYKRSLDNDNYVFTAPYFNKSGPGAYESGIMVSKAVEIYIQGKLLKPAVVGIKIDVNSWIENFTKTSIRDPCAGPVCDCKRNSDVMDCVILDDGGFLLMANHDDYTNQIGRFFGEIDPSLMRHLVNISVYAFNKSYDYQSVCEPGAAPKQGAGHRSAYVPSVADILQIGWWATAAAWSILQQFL
Sequence (P54289 947-1103 partner limits assumed): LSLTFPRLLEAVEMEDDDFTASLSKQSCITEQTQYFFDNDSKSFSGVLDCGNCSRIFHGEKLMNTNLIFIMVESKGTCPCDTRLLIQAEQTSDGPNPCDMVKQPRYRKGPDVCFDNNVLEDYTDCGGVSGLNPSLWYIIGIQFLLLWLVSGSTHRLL
ASSAY_INFO: High-throughput CaV2.2/Kir2.3 FLIPR fluorescent assay
Assay type: cell-based
ASSAY_CONDITIONS: Table 4; Fluo-4 FLIPR; closed or inactivated state not stated; read-out: FLIPR data CaV2.2
pIC50: −log10 of the molar value.
MEASUREMENT_TYPE: pIC50

Request: Specify reported pIC50 for the compound shown: O=C(NCc1cc(S(=O)(=O)c2cccc(C(F)(F)F)c2)ccn1)[C@@H]1C[C@@H](C2CCCCC2)CN1
Response: 6.12

P. NC1(C(=O)NCc2ccc(S(=O)(=O)c3cccc(C(F)(F)F)c3)cc2)CCC2(CC1)OCCO2
Q. CS(=O)(=O)c1nc(C(F)(F)F)ccc1C(=O)NCc1cccc(S(=O)(=O)c2cccc(C(F)(F)F)c2)c1
R. Cn1nc(C(F)(F)F)cc1C(=O)NCc1ccccc1S(=O)(=O)c1cccc(C(F)(F)F)c1
Request: With regard to pIC50, arrange the entries in ascending order, please. Kindly provide the labels arranged according to the requested ordering.
Response: P, Q, R

###

SYSTEM_UNDER_TEST: CaV3.2 (Homo sapiens)
Construct: expressed in transfected cells; host or cells: unnamed doxycycline-inducible cell line
ASSAY_INFO: High-throughput CaV3.2/Kir2.3 T-type FLIPR fluorescent assay
Assay type: cell-based
ASSAY_CONDITIONS: Table 4; Fluo-4 FLIPR; closed or inactivated state not stated
pIC50: −log10 of the molar value.
MEASUREMENT_TYPE: pIC50

Example compounds with recorded pIC50:
Request: Input O=C(NCc1ccc(S(=O)(=O)c2cccc(C(F)(F)F)c2)cc1)c1cnc(C(F)(F)F)nc1 [Compound 8] , output reported pIC50.
Response: 6.04

Request: Supply measured pIC50 of O=C(NCc1cccc(S(=O)(=O)c2cccc(C(F)(F)F)c2)c1)c1cnc(C(F)(F)F)nc1 [Compound 26] in your reply.
Response: 5.93

Request: Dear colleague, please send me the reported pIC50 for O=C(NCc1cccc(S(=O)(=O)c2cccc(C(F)(F)F)c2)c1)c1ccnc(C(F)(F)F)n1 [Compound 27] when you can.
Response: 5.61

1. O=C(NCc1cccc(S(=O)(=O)c2cccc(C(F)(F)F)c2)c1)c1ccc(C(F)(F)F)nc1 [Compound 19]
2. O=C(NCc1ccc(S(=O)(=O)c2cccc(C(F)(F)F)c2)cn1)[C@H]1C[C@@H](C2CCCCC2)CN1 [Compound 107]
3. CS(=O)(=O)c1cc(C(F)(F)F)cnc1C(=O)NCc1cccc(S(=O)(=O)c2cccc(C(F)(F)F)c2)c1 [Compound 24]
Request: Descending sort on pIC50 required. As an answer, provide the labels arranged in the order called for.
Response: 3, 1, 2
(3: 6.26, 1: 6.01, 2: 5.68)

###

SYSTEM_UNDER_TEST: CaV3.1 (Homo sapiens, UniProt O43497)
Construct: expressed in transfected cells; host or cells: unnamed doxycycline-inducible cell line
ASSAY_INFO: High-throughput CaV3.1 T-type FLIPR fluorescent assay
Type: cell-based
ASSAY_CONDITIONS: Table 4; Fluo-4 FLIPR
Protocol: Cells were plated in 384-well, clear-bottom, black-walled, poly-D-lysine coated plates (Becton Dickinson, Franklin Lake, N.J.) 2 days prior to use in the FLIPR assay. […] To assess the quality of the FLIPR assays the Z-factor (2) was used to quantify the suitability of the assay conditions using the following equation: […] Data are expressed as mean and standard deviation (SD).
pIC50: −log10 of the molar value.
MEASUREMENT_TYPE: pIC50

Request: State its pIC50 for this compound: CS(=O)(=O)c1cc(C(F)(F)F)ccc1C(=O)NCc1ccc(S(=O)(=O)c2cccc(C(F)(F)F)c2)cc1
Response: 5.97

Request: Let me know recorded pIC50 for CC(C)S(=O)(=O)c1cc(C(F)(F)F)cnc1C(=O)NCc1cccc(S(=O)(=O)c2cccc(C(F)(F)F)c2)c1 , thanks.
Response: 5.80

Request: Provide measured pIC50 value, entry: O=C(NCc1cccc(S(=O)(=O)c2cccc(C(F)(F)F)c2)c1)c1ccnc(C(F)(F)F)c1
Response: 5.76

Request: In one line, give reported pIC50 of the entry O=C(NCc1cccc(S(=O)(=O)c2cccc(C(F)(F)F)c2)c1)c1ccc(Cl)c(F)c1 .
Response: 5.79
